# Tested on: Mycobacterium tuberculosis
# protocolSummary: Antitubercular activity against Mycobacterium tuberculosis H37Ra after 5 days by luminescence assay
# Assay type: functional
# conditions: 120 h
Below, each of the compounds is paired with its reported MIC value.
// note: answer is a bare numeric in µg/mL

Previously resolved entries follow.
> print(dat)
                       smilesrepresentation                 studytarget  value
1       O=C(Nc1cc(O)cc(Cc2ccccc2)c1)c1cccs1  Mycobacterium tuberculosis    2.5
2      Nc1cc(Cc2ccccc2)cc(NC(=O)c2ccccc2)c1  Mycobacterium tuberculosis     10
3  O=C(Nc1cc(O)cc(Cc2ccccc2)c1)c1ccc(F)c(Cl)c1  Mycobacterium tuberculosis      5

Kindly consider the entry below.
Give MIC for O=C(Nc1cc(O)cc(Cc2ccccc2)c1)C1CCCCC1
0.625
